// data source = PubChem BioAssay (EPA / NIEHS)

Read-out: CYP2E1 (gene 1571)
Assay: LTEA_HepaRG_CYP2E1: Life Technologies and Expression Analysis (LTEA) Assay for CYP2E1 using HepaRG (AID 2283485)
Conditions: mRNA level, 48 h; actives raise or lower the signal
Protocol: LTEA_HepaRG is a cell based, multiplexed-readout assay that uses HepaRG, a human liver cell line, with measurements taken at 48 hours after chemical dosing on a 96-well plate.LTEA_HepaRG_CYP2E1 is one of 102 assay component(s) measured in the LTEA HepaRG cell culture assay. It is a marker of NR mediated metabolism.Data from the assay component LTEA_HepaRG_CYP2E1 was analyzed into 1 endpoint. […]
Calls of active or inactive are those of the source. Rule for the calls: active = hit-call score of the fitted dose curve at least 0.9, where 1 is the maximum; inactive = score below 0.9.
Output constraint: value belongs to true (active), false (inactive)

[Q] Identify the outcome logged in this assay for the molecule shown: CC1=NNC(=O)N(/N=C/c2cccnc2)C1
[A] false

[Q] Dear colleague, could you share the recorded outcome for C[N+]1(C)CCCCC1 when you have a moment?
[A] false

[Q] Name the outcome recorded for CC(C1CC1)C(O)(Cn1cncn1)c1ccc(Cl)cc1 (stereo not drawn) in the assay.
[A] true

[Q] Outcome? CC1(C(=O)Nc2ccc(O)c(Cl)c2Cl)CCCCC1
[A] false

[Q] Tell me the recorded outcome of this test for CCOP(=S)(OCC)SCCSCC .
[A] false

[Q] I would be grateful if you could indicate the recorded call for CN1COCN(Cc2cnc(Cl)s2)C1=N[N+](=O)[O-] .
[A] false

[Q] Just curious, what result did CCNc1nc(Cl)nc(NC(C)(C)C#N)n1 get here?
[A] true

[Q] Query: recorded result category for CCOP(=S)(OCC)OC(Cl)C(Cl)(Cl)Cl (stereo not drawn) in this test
[A] false

[Q] Record lookup: outcome of this test for COc1cc(OC)nc(Sc2cccc(Cl)c2C(=O)O)n1 ?
[A] true

[Q] What did this assay record as the result for COP(=O)(OC)SCn1c(=O)oc2cc(Cl)cnc21 ?
[A] false

[Q] Called result for CCc1cccc(CC)c1N(COC)C(=O)CCl
[A] false

[Q] What is the recorded call for this molecule in the test? CCOP(=O)(OCC)Oc1cc(C)nc(C(C)C)n1
[A] false

[Q] Given CCOC(=O)CC(SP(=O)(OC)OC)C(=O)OCC (stereo not drawn) , state the outcome it received in this test.
[A] true
